ASSAYED SYSTEM: PAF receptor (Oryctolagus cuniculus)
Sequence (G1TEI7 1-342): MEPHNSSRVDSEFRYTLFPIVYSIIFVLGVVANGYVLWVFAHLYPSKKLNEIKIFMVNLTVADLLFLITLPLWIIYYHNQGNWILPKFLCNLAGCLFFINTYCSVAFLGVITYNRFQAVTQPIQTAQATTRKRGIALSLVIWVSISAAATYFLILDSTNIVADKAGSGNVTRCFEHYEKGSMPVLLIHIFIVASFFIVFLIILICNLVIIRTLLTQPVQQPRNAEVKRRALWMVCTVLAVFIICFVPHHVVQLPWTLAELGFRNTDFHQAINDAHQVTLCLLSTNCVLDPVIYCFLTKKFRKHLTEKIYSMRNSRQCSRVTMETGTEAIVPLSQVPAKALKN
PROTOCOL TEXT: PAF receptor binding assay: inhibition of specific [3H]C18-PAF binding to rabbit platelet membranes
RUN CONDITIONS: Ki (PAF Receptor Binding Activity), 0.6 nM [3H]C18-PAF, 60 min, 22-23 °C, Ki from IC50 (Cheng and Prusoff)
Where a name gives a salt, the structure may show the parent alone.
MEASURED ATTRIBUTE: pKi
One number for each entry, as −log10 of the molar value.

{"COMPOUND": "O=C(c1cn(Cc2ccccc2)c2ccccc12)C1CSC(c2cccnc2)N1 (centres unmarked)", "ASSAYED SYSTEM": "PAF receptor (Oryctolagus cuniculus)", "pKi": 7.30}

Give pKi for each of the items listed below.
1. Cn1cc(C(=O)C2CSC(c3cccnc3)N2)c2ccccc21 (centres unmarked) [Example 22, dihydrochloride]
2. O=C(C1CSC(c2cccnc2)N1)n1ccc2c(Br)cccc21 (centres unmarked) [Example 6, dihydrochloride]
3. Cc1ccc2c(c1)cc(C)n2C(=O)C1CSC(c2cccnc2)N1 (centres unmarked)
4. Cc1ccc2[nH]c(C)c(C(=O)C3CSC(c4cccnc4)N3)c2c1 (centres unmarked) [Example 66, oxalate]
5. N#Cc1ccc2c(ccn2C(=O)C2CSC(c3cccnc3)N2)c1 (centres unmarked) [Example 10, dihydrochloride]

RESULT:
1: 7.89; 2: 7.28; 3: 7.34; 4: 7.51; 5: 5.68

Give pKi for each of the items listed below.
1. COc1ccc2c(C(=O)C3CSC(c4cccnc4)N3)c[nH]c2c1 (centres unmarked) [Example 82]
2. CS(=O)(=O)n1cc(C(=O)C2CSC(c3cccnc3)N2)c2ccccc21 (centres unmarked)

RESULT:
1. 8.05
2. 7.82
